- assayed-system: CDK1-NanoLuc fusion with CCNB1 in 293T or 293 cells (Homo sapiens, UniProt P06493)
- Construct: host or cells: 293T (ATCC CRL-3216) or 293 (ATCC CRL-1573)
- Sequence (P06493 whole entry, the tested form may be a part): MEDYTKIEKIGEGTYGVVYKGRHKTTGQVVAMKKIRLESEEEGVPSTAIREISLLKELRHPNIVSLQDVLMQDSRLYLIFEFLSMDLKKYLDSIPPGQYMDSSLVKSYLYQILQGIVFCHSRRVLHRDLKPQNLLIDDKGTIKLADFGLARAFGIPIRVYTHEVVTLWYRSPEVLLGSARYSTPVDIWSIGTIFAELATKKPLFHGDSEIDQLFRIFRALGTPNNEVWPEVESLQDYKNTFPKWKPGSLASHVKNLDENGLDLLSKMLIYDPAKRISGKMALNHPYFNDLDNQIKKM
- Sequence (P14635 whole entry partner, the tested form may be a part): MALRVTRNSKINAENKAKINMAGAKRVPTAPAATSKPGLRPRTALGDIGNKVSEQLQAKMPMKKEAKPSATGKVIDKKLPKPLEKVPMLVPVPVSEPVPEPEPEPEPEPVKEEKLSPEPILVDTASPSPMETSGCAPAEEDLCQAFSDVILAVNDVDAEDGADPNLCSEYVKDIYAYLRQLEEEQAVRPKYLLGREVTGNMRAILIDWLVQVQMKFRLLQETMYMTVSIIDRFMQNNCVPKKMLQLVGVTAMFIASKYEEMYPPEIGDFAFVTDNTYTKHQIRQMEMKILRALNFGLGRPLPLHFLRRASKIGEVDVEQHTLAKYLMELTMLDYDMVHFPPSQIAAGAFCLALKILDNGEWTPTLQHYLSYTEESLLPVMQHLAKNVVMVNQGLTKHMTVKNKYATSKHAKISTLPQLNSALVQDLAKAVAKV
- protocol-summary: NanoBRET Target Engagement (TE) Intracellular Kinase Assay, CDK1/CCNB1
- Type: cell-based
- measurement-context: NanoBRET TE intracellular kinase assay, 2-hour incubation, read-out: NanoBRET-CDK1/B1 IC50
recorded-metric: IC50
The reply should consist of the numeric value with the unit placed after it.

Known IC50 results, listed for orientation:
| molecular-string | assayed-system | IC50 |
| --- | --- | --- |
| CC(C)NC(=O)O[C@@H]1CC[C@H](c2cc(NC(=O)c3cc(COc4cccc(O)c4C=O)nn3C)n[nH]2)C1 | CDK1-NanoLuc fusion with CCNB1 in 293T or 293 cells (Homo sapiens, UniProt P06493) | 17.7 nM |
| COc1cc(O)c(C=O)c(OCC(=O)Nc2cc([C@H]3C[C@@H](OC(=O)N4C5COCC4C5)C3)[nH]n2)c1 | CDK1-NanoLuc fusion with CCNB1 in 293T or 293 cells (Homo sapiens, UniProt P06493) | 21 nM |

Okay, now this compound:
The compound listed as C[C@@H]1CCCN1C(=O)O[C@@H]1CC[C@H](c2cc(NC(=O)COc3cccc(O)c3C=O)n[nH]2)C1 shows IC50 equal to 20.3 nM

Hello, the source for this data is patent US20250289789A1, in case you need it.
